target_entity: human CD33 on primary human dendritic cells (human, UniProt P20138 18-364)
Sequence (P20138 18-364): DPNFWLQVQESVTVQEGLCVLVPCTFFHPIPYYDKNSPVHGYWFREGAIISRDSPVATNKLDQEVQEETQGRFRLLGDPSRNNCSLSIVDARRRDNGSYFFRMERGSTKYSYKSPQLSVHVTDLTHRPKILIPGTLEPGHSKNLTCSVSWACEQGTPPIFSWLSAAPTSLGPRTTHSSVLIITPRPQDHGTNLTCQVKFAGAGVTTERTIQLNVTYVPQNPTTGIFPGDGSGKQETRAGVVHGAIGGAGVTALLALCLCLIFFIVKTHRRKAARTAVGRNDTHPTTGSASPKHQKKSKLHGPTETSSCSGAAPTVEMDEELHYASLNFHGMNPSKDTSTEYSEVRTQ
assay: cell-based or functional assay
Catalogue of binders with associated Receptor downregulation, (EC50) (pM)
Write down the numeric answer in pM and omit the unit.

INSERT INTO measurements (binder, property_label, observed_value) VALUES
  ('anti-CD33 antibody 6C7H39 (antibody, V domains shown, VH/VL only) VH: EVQLVESGGGLVQPGGSLRLSCAASGFTFSEYDMLWVRQAPGKGLEWVGEIRLKSNNYVTNYAASVKGRFTISRDDTKNSVYLQMNSLKTEDTGVYYCTRAGYYVPFAYWGQGTLVTVSS VL: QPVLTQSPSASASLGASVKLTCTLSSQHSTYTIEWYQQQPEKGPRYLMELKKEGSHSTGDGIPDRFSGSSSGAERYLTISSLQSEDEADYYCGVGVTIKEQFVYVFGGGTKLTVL', 'Receptor downregulation, (EC50) (pM)', 38.7);

Reported Receptor downregulation, (EC50) (pM) for anti-CD33 antibody 6C7H5 (antibody, V domains shown, Humanized 6C7; VH/VL only; also called parental humanized antibody) VH: EVQLVESGGGLVQPGGSLRLSCAGSGFTFSNYCMNWVRQAPGKGLEWVAEIRLKSNNYVTNYAASVKGRFTISRDDSKNSVYLQMNSLKTEDTGVYYCTRDGYYVPFAYWGQGTLVTVSS VL: QLVLTQSPSASASLGASVKLTCTLSSQHSTYTIEWYQQQPEKGPRYLMELKKDGSHSTGDGIPDRFSGSSSGAERYLTISSLQSEDEADYYCGVGDTIKEQFVYVFGGGTKLTVL was 42.4
